The origin of these recorded values is ChEMBL document CHEMBL1201862.

target: Polyadenylate-binding protein 1 (Homo sapiens, UniProt P11940); experiment: PABP1 MLLE–PAM2 binding inhibitor potency, dose response, biochemical, fluorescence polarization, FITC-PAM2 peptide (AID 602259); format: functional; conditions: read-out: IC50_Mean
Sequence (P11940 whole entry): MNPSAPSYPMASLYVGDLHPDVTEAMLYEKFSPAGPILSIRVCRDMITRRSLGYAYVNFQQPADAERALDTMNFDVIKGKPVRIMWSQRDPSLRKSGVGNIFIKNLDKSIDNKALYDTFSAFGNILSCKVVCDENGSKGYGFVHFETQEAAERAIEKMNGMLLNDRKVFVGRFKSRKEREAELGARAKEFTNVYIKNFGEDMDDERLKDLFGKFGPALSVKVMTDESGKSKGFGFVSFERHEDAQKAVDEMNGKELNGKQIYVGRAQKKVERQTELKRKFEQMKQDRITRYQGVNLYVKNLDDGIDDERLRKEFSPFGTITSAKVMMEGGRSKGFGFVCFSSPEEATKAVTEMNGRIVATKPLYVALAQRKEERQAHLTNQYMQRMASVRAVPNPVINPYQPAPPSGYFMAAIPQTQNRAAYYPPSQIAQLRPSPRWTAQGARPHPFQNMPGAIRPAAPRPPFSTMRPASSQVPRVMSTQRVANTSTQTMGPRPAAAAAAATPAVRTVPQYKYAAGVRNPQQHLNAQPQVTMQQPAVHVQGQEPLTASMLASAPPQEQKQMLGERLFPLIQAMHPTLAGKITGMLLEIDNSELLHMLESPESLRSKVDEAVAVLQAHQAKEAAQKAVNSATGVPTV
The source made the active and inactive calls. Cut-off read from the data, not from the text of the source: active = IC50 of 20 µM or less and inactive = more.
# IC50 per entry

Examples with their reported IC50 follow.
O=C(NC(=S)N1CCCC1)c1ccccc1F    > 66 µM (inactive)
Cn1nnc(NC(=S)NC(=O)c2cccc3c(Br)cccc23)n1    > 66 µM (inactive)
N#C/C(=N\Nc1ccc(S(=O)(=O)N2CCCCCC2)cc1)C(N)=S    > 66 µM (inactive)
COc1ccc2c(c1)Cc1sc(NC(C)=O)nc1-2    > 66 µM (inactive)
CCOC(=O)C1CCN(C(=O)COC(=O)CSc2ccc([N+](=O)[O-])cc2)CC1    > 66 µM (inactive)
COCCN=C(S)N(CCO)Cc1cc2cc3c(cc2nc1O)OCCO3    > 66 µM (inactive)

Name the reported IC50 value associated with the compound `CCOc1ccc(NC(=S)NC(=O)c2c(Cl)c(C)nn2C)c([N+](=O)[O-])c1` > 66 µM (inactive)

And what about the compound `O=C(Cc1ccc(F)cc1)N1CCN=C1SCc1ccc([N+](=O)[O-])cc1` ? > 66 µM (inactive)

Entry CCC(SCC(=O)OC)C(=O)Nc1nnc(C(C)C)s1 (stereo not given) please > 66 µM (inactive)

Also `COc1cc2ccccc2cc1C(=O)NC(=S)Nc1cccc(C(=O)O)c1` ? > 66 µM (inactive)
